Protocol text: soluble on expression in E. coli; label from the status in PepcDB or PDB records

{"columns": ["Sequence content", "soluble on expression in E. coli"],
 "data": [
  ["MSLLVIVKVQQAKNPLERAFFYAVSPEDYYEQAERLLKEGVIDEEGLKKARIEEYVLGARFNANFHSYALKDVFGNFDFVGFSDRRQVNLQGFLNLPAKDQLKINVPVKNEEIGHFGVTMRESKQQEVYEAAEKFIEACKAEFPPGIIGMFGLQGAMAYSPEDETKLEFVIFDVSFRVPGDPAIGPTSPEMRNLTLKHGVKIEDPLDLTMMEIKKAMELKRMEEIVTEGHHHHHH", "soluble"],
  ["MSLNELDCLETASIKIDPFTLELSRSLSTAVGDIEQRRGHVVCVDINGTVGIGEATPLPGWTERYPDCQDALRSVSTDSTSTSTSTSTSTSASEITPDTRSAAHHGIELACVDAMARHHDSSLARFLSTDTPATSIPVNATIGDCDSEQTYKKAESAVEDGYTTIKLKVGARDIESDCNRVIAARSAVGEDITLRVDANGAWNRTAAERFLETARTVDIAYIEQPLPASDLDGHALLRGRGVDIAVDESMNRTSPEQIFAADAADIIVCKPMALGGPKQTLAVARKAEAVDIDTVVTTTIDGVIARMGAVHIAAALPGSGSNARACGLATGSMLADDLTANPVSISDGEISVPTGPGLAGGALRSCCNREGHHHHHH", "soluble"]
]}

---

Protocol text: soluble on expression in E. coli; label from the status in PepcDB or PDB records

{"columns": ["Sequence content", "soluble on expression in E. coli"],
 "data": [
  ["MASAIGKNFQSGARECSTFEKIKTELSAAGLSSGAIDGILKIAATYKPKEGEKPDLAQAMVTIGKLFAELETFIKTQPESDQTIYHAIIEKKKAELVAHGIKF", "not soluble"],
  ["QYSLLHVSDLFFLAQQAMPGVQVLDALTGKPVEGASVDASMRYSIDRSVHTLSPTDRYGRIDLPKSYNRFFPYTDGDRSYPVVSAYTYKQDQVDLSKKNERKYIVSTDRAIYRPGQKVHFFGQCDRIGYAVEDARAIGGSEVEVVLEDANSKEIGRLLCQADEMGRFSGSFDLPTGILNGLFGLRVGGDTYPFSVEEYKRPTFEVGLRSPDAAYAMGDTLRIRGEAKTFTGIGMRGATVNYRLSLTPYTRRWWGRPVADRVVQTGEAVVDES", "not soluble"]
]}

---

Protocol text: soluble on expression in E. coli; label from the status in PepcDB or PDB records

{"columns": ["Sequence content", "soluble on expression in E. coli"],
 "data": [
  ["MKKALLYRRGGLGDTLLTFPILEILKRRGYETIAVGNTDYFSIAKEVGYADGVYSFIPEEEFDLKVIISFEGNVKPFPEKREWIVKHYLNSLGLGEEFSTKLPIKPVQDSPLKGKVVIHPSSGSKKKNPPLEVFLKLKDFLEERGKEVVFLLGEAEEHLREVLSPHFLSLSPLEIAKHLKTAGFYVGLDSGISHLASYLGVPSFIVYGPTDPLVWRPIGDKVFQISLNLDCSPCFPNVCEERMCLDTEEVLRKTKETLLRYWNSL", "not soluble"],
  ["RAPDLAGVPDCLVIVGGSMAAVKAPTALRRLREGGASTAVIATRAALAFITPLSLATAGNCEVATDETWFAPQPIAQHLSLARARVTVVLGASAELLAAAAHGHADTLATATLLSAEGQVLWVPAMNERMWLHPAVQANAERLRGWGHLFLGPETGAFGTPGEGSGTGRMAEPEAIAARALALLNEQDAEAEAAPQDLAGLKVV", "not soluble"]
]}
